Biological target: T1, recombinant tetanus toxin fragment C (rTTC) (Clostridium tetani, UniProt P04958 865-1315)
T1 sequence: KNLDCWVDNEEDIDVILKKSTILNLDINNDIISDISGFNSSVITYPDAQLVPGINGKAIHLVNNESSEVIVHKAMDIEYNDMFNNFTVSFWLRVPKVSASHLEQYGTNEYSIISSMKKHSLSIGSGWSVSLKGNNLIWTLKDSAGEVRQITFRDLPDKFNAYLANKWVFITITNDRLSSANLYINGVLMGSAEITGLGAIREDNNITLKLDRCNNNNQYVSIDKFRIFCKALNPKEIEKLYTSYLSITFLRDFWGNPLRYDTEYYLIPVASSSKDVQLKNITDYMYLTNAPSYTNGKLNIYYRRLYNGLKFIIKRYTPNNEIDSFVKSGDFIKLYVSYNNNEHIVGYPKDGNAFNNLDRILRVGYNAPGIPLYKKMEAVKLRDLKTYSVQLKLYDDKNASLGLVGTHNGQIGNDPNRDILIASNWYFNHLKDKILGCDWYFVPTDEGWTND
Assay: ELISA, rTTC captured with coated mAb 6E7; note: test concentration or dose not given here
property_label: absorbance at 450 nm
// no unit, no text: just the number

Sample records with absorbance at 450 nm:
>  <binder>
SVT15L-3FW4M (VHH) VHH: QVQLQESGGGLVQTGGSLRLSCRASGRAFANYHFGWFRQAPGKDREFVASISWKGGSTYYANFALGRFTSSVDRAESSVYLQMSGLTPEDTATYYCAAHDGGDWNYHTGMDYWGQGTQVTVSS

>  <absorbance at 450 nm>
0.528

$$$$
>  <binder>
SVT16L (VHH) VHH: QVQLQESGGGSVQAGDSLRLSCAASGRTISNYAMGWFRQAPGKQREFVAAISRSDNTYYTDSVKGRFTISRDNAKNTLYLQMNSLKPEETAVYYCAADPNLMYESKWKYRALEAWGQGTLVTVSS

>  <absorbance at 450 nm>
1.38

$$$$
>  <binder>
SVT02L (VHH) VHH: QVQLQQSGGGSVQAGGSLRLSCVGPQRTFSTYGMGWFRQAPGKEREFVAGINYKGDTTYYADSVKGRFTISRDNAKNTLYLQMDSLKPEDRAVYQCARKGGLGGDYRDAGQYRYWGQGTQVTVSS

>  <absorbance at 450 nm>
0.062

$$$$

Lab note: next binder to report on.
// absorbance at 450 nm value for SVT03L (VHH) VHH: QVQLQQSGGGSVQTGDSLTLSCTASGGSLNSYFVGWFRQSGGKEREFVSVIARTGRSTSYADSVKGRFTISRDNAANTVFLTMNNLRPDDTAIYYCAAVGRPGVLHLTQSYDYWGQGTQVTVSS : 0.061
